Hey, just so you know, these numbers are from the emibetuzumab library of Makowski et al. (2022).

B1: VH:VL chains; a variant is named by its letters at X, in order (parent)
chain 1: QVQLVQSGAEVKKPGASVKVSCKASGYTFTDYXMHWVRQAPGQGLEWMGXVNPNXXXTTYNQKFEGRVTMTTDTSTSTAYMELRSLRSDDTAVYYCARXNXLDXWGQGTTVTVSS
chain 2: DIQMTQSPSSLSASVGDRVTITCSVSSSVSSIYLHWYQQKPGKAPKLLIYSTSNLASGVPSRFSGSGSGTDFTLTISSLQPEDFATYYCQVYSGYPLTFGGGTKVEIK

variants of: B1; assay: yeast display scFab, FACS + sequencing; conditions: with MET
This is one part of the list. No count for the full screen is at hand.
VALUE KIND: antigen binding call

1) YEGGGSAV : no binding
2) VRGKGSGA : binds
3) VGGTSSLD : no binding
4) DETRSAGA : no binding
5) AGGGNDWV : no binding
6) DAGGAAAD : no binding
7) VKGKGDLA : no binding
8) FRGRGSAD : binds
9) VTKTGDVA : no binding
10) YTRGAAVA : no binding
11) YRRRGSWA : binds
12) VTAGSDAV : no binding
13) YTGTSDAV : no binding
14) YRGKSSGF : binds
15) YRAKSAVF : binds
16) FRGKGSAV : binds
17) YTKTGDAV : binds
18) YRTRSAGA : binds
19) DTGTGSWD : no binding
20) DRAGDDVF : no binding
21) YTGTGAVF : no binding
22) YTRGASGA : no binding
23) VAEKGSGA : no binding
24) VTGEDAGA : no binding
25) VRTRSFGA : no binding
26) YRGKGAVF : binds
27) FKGKGAAV : binds
28) STGGDDGF : no binding
29) VTKTGAAA : binds
30) YRRRGAWA : binds
31) FRRKDDWA : no binding
32) VRAGGSVA : binds
33) VTKTGDAV : binds
34) SEARSSGF : no binding
35) AATGSAWA : no binding
36) VEARNDWA chain 1 M81I : no binding
37) AARADAVV : no binding
38) VRGKGSLA : binds
39) AKGKGAAV : no binding
40) YTERGDAV : no binding
41) YRRRGYWA : binds
42) DKGGGFAV : no binding
43) DTATADWA : no binding
44) YRKRSVVF chain 1 S115F : no binding
45) YKGGGSAV : binds
46) YRGKGSAV : binds
